Provenance of the data: patent US20240018256A1

Target: T1, human CD19 (human, UniProt P15391 20-556)
T1 sequence: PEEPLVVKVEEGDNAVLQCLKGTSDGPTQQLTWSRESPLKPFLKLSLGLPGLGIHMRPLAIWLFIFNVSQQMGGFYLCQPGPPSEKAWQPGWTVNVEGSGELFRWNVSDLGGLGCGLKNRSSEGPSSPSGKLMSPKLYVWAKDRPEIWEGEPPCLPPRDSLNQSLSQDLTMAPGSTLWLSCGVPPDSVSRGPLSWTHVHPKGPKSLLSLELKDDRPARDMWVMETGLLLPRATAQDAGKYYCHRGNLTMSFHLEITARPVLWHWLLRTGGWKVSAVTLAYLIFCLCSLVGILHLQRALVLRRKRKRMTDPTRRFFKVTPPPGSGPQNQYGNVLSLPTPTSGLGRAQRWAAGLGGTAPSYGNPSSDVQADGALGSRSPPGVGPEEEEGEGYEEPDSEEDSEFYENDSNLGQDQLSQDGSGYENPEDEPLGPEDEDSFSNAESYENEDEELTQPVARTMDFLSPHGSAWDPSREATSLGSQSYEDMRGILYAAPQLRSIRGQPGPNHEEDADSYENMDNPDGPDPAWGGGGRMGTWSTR
Assay: flow cytometry, scFv titrated on CD19-expressing K562 cells (FIG. 4, one plate)
REPORTED_PROPERTY: pEC50
// pEC50: -log10(molar conc.)

Before answering, review these 3 worked examples.
>  <BINDER>
Clone 18 scFv (scFv, Human scFv, VH-(G4S)3-VL) scFv: EVQLVESGGGLVQPGRSLRLSCAASGFTFDDYAMHWVRQAPGKGLEWVSGISWNSGRIGYADSVKGRFTISRDNAKNSLFLQMNSLRAEDTAVYYCARDQGYHYYDSAEHAFDIWGQGTVVTVSSGGGGSGGGGSGGGGSQSALTQPRSVSGFPGQSVTISCTGTTSDDVSWYQQHPGKAPQLMLYDVSKRPSGVPHRFSGSRSGRAASLIISGLQTEDEADYFCCSYAGRYNSVLFGGGTKLTVL

>  <pEC50>
8.32

$$$$
>  <BINDER>
Clone 17 scFv (scFv, Human scFv, VH-(G4S)3-VL) scFv: EVQLVESGGGLVQPGRSLRLSCAASGFTFDDYAMHWVRQAPGKGLEWVSGISWNSGRIGYADSVKGRFTISRDNAKNSLFLQMNSLRAEDTAVYYCARDQGYHYYDSAEHAFDIWGQGTMVTVSSGGGGSGGGGSGGGGSQSALTQPASVSGSPGQSITIFCTGTSSDVGGYNYVSWYQQLPGTAPKLLIYSNNQRPSGVPDRFSGSKSGTSASLAISGLRSEDEADYYCAAWDDSLSVVFGGGTKLTVL

>  <pEC50>
8.08

$$$$
>  <BINDER>
Clone 1 scFv (scFv, Human scFv) scFv: EVQLVESGGGLVQPGRSLRLSCAASGFTFDDYAMHWVRQAPGKGLEWVSGISWNSGRIGYADSVKGRFTISRDNAKNSLFLQMNSLRAEDTAVYYCARDQGYHYYDSAEHAFDIWGQGTMVTVSSGGGGSGGGGSGGGGSQSALTQPASVSGSPGQSITISCTGTSSDVGAYNFVSWYQQLPGTAPKFLIYDNNKRPPGIPDRFSGSKSGTSATLGITGLQTGDEADYYCATWDSGLSAVVFGGGTKLTVL

>  <pEC50>
6.67

$$$$

# ---- query binder ----
Incoming: Using the record for Clone 5 scFv (scFv, Human scFv, VH-(G4S)3-VL) scFv: EVQLVESGGGLVQPGRSLRLSCAASGFTFDDYAMHWVRQAPGKGLEWVSGISWNSGRIGYADSVKGRFTISRDNAKNSLFLQMNSLRAEDTAVYYCARDQGYHYYDSAEHAFDIWGQGTMVTVSSGGGGSGGGGSGGGGSSYELTQDPAVSVALGQTVRITCQGDSLRSYYASWYQQKPGQAPVLVIYDKNNRPSGIPDRFSGSSSGNTASLTITGAQAEDEADYYCNSRDSSGNNWVFGGGTKLTVL , report its pEC50.
Outgoing: 7.80
